These data points were gathered from ChEMBL document CHEMBL1132859.

# TARGET: Protein kinase C delta type (Homo sapiens, UniProt Q05655)
# Sequence (Q05655 whole entry): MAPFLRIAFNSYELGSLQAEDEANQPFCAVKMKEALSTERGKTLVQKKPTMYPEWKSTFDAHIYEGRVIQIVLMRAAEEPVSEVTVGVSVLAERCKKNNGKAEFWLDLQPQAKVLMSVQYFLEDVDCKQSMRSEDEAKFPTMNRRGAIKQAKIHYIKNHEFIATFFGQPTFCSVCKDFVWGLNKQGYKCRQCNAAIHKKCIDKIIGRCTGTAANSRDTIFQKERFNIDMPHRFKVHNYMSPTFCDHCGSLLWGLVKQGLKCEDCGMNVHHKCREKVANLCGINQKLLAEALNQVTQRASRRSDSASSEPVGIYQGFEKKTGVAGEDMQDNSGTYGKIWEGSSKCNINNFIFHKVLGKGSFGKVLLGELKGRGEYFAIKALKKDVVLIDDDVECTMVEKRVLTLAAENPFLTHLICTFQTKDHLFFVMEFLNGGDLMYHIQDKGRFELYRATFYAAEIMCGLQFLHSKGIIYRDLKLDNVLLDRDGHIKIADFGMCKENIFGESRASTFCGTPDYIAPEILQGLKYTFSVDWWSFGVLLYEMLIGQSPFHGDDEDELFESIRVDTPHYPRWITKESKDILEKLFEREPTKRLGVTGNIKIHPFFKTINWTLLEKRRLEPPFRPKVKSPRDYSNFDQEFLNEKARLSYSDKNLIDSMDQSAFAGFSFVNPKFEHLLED
# EXPERIMENT_DESCRIPTION: Binding affinity for human recombinant protein kinase C delta
READOUT_KIND: Ki (nM)
Numbers only, in nM.

Use these answered entries as a reference point.
SMILES	Ki / nM
CCCCCCCCCCCC[C@H]1C(=O)N[C@H](CO)Cc2ccccc2N1C	0.8
CCCCCCCCCCCCCC[C@H]1C(=O)N[C@H](CO)Cc2ccccc2N1C	0.8

Proceeding to the next compound to report its Ki.
Data request: For the compound shown here, "CCCCCCCCCC[C@H]1C(=O)N[C@H](CO)Cc2ccccc2N1C" , give the reported Ki.
Data returned: 0.8
